experiment: Efflux ratio of permeability in human Caco2 cells after 90 mins by LC-MS/MS analysis; assay type: ADME, cell-based; conditions: Caco-2
recorded-metric: efflux ratio at 1.5 h
Respond numerically, and do not add a unit to the figure.

INPUT: Endpoint output: efflux ratio at 1.5 h of CCOP(=O)(OCC)C(=Cc1ccccc1)P(=O)(OCC)OCC . Value?
OUTPUT: 0.9

---

assay: Oral bioavailability in BALB/c mouse plasma at 10 mg/kg up to 24 hrs by LC-MS/MS analysis; format: ADME, organism-based
recorded-metric: bioavailability (%)
Write it as a number; the unit % goes unstated.

INPUT: Endpoint output: bioavailability of CCOP(=O)(OCC)C(=Cc1ccccc1)P(=O)(OCC)OCC . Value?
OUTPUT: 37.6
